experimentDescription: Water solubility
conditionsUsed: water, aqueous solubility
readoutName: solubility

I am curious: what solubility value has been reported for O=S(=O)(CC1CS1)c1ccc(Oc2ccccc2)cc1 (stereo not shown) [SB-3CT] ?
~2.45 µg/mL

---

testedTarget: MMP-14 (Homo sapiens, UniProt P50281)
readoutName: pKi
Just the number, please; pKi means minus log10 of the concentration in mol/L.

Given the entry Nc1ccc(Oc2ccc(S(=O)(=O)CC3CS3)cc2)cc1O (stereo not shown) , report its measured pKi.
6.59

---

So I've got a bunch of compounds here, and I need their kon values.
testedTarget: human MMP-9 (Homo sapiens, UniProt P14780)
Sequence (P14780 107-707 limits assumed): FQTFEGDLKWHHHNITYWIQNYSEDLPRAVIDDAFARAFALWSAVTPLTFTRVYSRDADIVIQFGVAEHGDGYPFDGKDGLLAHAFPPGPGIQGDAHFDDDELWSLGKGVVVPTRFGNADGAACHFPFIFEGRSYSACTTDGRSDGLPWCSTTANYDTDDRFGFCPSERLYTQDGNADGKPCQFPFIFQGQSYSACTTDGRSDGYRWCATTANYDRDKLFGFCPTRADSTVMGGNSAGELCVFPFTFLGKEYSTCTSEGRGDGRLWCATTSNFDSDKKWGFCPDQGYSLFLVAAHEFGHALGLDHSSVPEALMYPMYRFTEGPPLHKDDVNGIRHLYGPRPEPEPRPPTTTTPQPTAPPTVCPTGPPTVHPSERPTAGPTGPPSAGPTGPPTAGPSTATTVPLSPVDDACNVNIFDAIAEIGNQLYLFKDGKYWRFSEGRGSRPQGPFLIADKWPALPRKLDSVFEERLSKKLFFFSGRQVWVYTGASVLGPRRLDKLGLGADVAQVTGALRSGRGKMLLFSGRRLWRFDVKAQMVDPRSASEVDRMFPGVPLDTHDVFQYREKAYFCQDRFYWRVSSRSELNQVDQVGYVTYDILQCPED
experimentDescription: biochemical
conditionsUsed: read-out: kon, MMP-9
Please reply with the bare figure in M⁻¹ s⁻¹ and do not write the unit itself.

Suppose we examine the compound NCCCCC(N)C(=O)Nc1ccc(Oc2ccc(S(=O)(=O)CC3CS3)cc2)cc1 (stereo not shown) [Compound 11b] ; what kon value has been reported?
270

One more compound: NC(CCC(=O)O)C(=O)Nc1ccc(Oc2ccc(S(=O)(=O)CC3CS3)cc2)cc1 (stereo not shown) [Compound 11c]
2300

Now the compound Nc1ccc(Oc2ccc(S(=O)(=O)CC3CS3)cc2)cc1O (stereo not shown)
1070

How about NCC(=O)Nc1ccc(Oc2ccc(S(=O)(=O)CC3CS3)cc2)cc1 (stereo not shown) [Compound 11a] ?
210

meta.source: patent US9867805B2
